- tgt: tryptase
- test.protocol: Cellular protease profiling
quantity.kind: IC50

## Input GET /values?readout=IC50&item= NCCCC[C@H](NC(=O)C1CCCC1)C(=O)COc1c(F)ccc(F)c1F [COR388]
## Output > 10 µM

###

- tgt: FVIIa (Homo sapiens, UniProt P08709)
- Sequence (P08709 213-466 limits assumed): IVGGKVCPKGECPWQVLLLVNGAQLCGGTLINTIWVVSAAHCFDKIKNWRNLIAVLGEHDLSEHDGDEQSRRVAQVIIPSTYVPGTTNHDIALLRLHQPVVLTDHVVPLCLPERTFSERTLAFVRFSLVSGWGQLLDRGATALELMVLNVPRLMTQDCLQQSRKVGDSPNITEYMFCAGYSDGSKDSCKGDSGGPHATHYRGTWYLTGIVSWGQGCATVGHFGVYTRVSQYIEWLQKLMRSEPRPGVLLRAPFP
- Sequence (P08709 61-212 partner limits assumed): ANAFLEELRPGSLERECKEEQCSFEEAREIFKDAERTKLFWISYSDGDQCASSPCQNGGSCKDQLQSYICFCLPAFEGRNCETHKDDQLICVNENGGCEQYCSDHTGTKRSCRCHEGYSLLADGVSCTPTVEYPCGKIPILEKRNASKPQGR
- test.protocol: Cellular protease profiling
quantity.kind: IC50

## Input GET /values?readout=IC50&item= "NCCCC[C@H](NC(=O)C1CCCC1)C(=O)COc1c(F)ccc(F)c1F"
## Output > 10 µM

###

- tgt: UniProtKB P00747
- Sequence (P00747 581-810 limits assumed, species assumed): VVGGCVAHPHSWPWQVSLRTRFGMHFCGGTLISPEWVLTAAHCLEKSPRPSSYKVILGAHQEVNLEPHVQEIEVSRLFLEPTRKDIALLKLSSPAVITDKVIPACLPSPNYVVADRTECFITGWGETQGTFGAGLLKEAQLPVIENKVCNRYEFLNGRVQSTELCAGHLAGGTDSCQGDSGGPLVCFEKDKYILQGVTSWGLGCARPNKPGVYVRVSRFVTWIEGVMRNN
- Sequence (P00747 97-580 partner limits assumed, species assumed): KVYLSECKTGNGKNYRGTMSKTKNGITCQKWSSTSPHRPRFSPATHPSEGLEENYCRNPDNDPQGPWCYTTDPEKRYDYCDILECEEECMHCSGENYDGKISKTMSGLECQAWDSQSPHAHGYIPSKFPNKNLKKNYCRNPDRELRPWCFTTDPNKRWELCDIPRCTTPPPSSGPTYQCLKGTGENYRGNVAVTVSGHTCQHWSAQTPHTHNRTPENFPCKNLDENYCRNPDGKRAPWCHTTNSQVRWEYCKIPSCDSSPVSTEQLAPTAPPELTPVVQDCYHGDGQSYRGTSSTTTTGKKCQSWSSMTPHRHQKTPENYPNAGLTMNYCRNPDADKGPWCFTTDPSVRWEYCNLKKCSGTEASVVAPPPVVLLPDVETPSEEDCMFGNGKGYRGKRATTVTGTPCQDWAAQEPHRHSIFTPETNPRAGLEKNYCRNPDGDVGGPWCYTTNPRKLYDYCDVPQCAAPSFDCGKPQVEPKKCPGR
- test.protocol: Cellular protease profiling
pIC50: −log10 of the molar value.
quantity.kind: pIC50

## Input Recorded pIC50 for NCCCC[C@H](NC(=O)C1CCCC1)C(=O)COc1c(F)ccc(F)c1F [COR388] with UniProtKB P00747, please?
## Output < 5.00

###

- tgt: BACE1 (Homo sapiens, UniProt P56817)
- Sequence (P56817 46-501, species assumed): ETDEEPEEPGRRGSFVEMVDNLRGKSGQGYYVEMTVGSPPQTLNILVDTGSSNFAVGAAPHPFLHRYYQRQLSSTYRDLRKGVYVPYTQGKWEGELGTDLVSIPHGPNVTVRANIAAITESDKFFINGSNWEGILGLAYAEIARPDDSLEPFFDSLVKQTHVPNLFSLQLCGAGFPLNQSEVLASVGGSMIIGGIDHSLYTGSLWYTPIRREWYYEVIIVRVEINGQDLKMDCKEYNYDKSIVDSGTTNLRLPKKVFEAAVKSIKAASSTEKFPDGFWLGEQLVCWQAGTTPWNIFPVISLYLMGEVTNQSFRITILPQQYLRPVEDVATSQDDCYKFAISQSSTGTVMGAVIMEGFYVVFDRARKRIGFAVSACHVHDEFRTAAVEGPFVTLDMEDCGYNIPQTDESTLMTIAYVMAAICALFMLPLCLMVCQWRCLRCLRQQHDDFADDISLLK
- test.protocol: Cellular protease profiling
quantity.kind: IC50

## Input GET /values?readout=IC50&item= "NCCCC[C@H](NC(=O)C1CCCC1)C(=O)COc1c(F)ccc(F)c1F"
## Output > 10 µM

###

- tgt: caspase family enzymes
- test.protocol: Cellular protease profiling
pIC50: −log10 of the molar value.
quantity.kind: pIC50

## Input GET /values?readout=pIC50&item= "NCCCC[C@H](NC(=O)C1CCCC1)C(=O)COc1c(F)ccc(F)c1F"
## Output < 5.00

###

- tgt: thrombin (Homo sapiens, UniProt P00734)
- test.protocol: Cellular protease profiling
quantity.kind: IC50

## Input GET /values?readout=IC50&item= NCCCC[C@H](NC(=O)C1CCCC1)C(=O)COc1c(F)ccc(F)c1F [COR388]
## Output > 10 µM

###

- tgt: FXa (Homo sapiens, UniProt P00742)
- Sequence (P00742 235-488 limits assumed): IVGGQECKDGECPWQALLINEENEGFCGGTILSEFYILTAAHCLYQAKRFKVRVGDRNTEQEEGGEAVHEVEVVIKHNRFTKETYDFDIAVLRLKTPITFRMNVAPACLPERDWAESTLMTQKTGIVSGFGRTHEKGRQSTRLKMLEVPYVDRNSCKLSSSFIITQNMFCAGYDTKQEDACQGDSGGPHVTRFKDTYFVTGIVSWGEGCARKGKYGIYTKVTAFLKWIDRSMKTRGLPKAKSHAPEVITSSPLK
- Sequence (P00742 41-179 partner limits assumed): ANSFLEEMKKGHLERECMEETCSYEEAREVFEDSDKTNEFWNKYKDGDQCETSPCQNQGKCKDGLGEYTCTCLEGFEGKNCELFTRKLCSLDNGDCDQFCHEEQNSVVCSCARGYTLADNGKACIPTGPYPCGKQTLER
- test.protocol: Cellular protease profiling
quantity.kind: IC50

## Input GET /values?readout=IC50&item= "NCCCC[C@H](NC(=O)C1CCCC1)C(=O)COc1c(F)ccc(F)c1F"
## Output > 10 µM
